test system: KG1a cells; experiment: MTT cytotoxicity assay, KG1a; assay type: cell-based, human; settings: Homo sapiens, KG-1a, 72 h, read-out: IC50 KG1a
outcome_measure: IC50 (µM)
Only the number, expressed in µM, is required.

// IC50 (KG1a cells) for C=C1C(=O)O[C@H]2[C@H]1CC/C(C)=C/CC[C@@]1(C)O[C@@H]21 [PTL, Parthenolide] = 6.1

Known value: KG1a cells IC50 of the molecule COc1cccc2c1C(=O)c1c(O)c3c(c(O)c1C2=O)C[C@@](O)(C(=O)CO)C[C@@H]3O[C@H]1C[C@H](N)[C@H](O)[C@H](C)O1 equals 0.75
